- assayed-target: T1, CD27 expressed on the cell surface of HT1080_CD27 cells (human, UniProt P26842 20-260)
- T1 sequence (looked up): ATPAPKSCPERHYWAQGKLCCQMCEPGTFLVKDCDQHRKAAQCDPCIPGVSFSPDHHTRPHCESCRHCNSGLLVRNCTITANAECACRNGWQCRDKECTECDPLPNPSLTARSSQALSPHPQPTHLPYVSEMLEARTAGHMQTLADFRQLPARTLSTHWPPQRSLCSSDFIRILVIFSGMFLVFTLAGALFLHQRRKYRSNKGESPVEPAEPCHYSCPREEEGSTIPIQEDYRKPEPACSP
- assay: cell-based or functional assay
quantity: EC 50 (IL-8 release, cross-linked) (µg/mL)
One number for each entry, in µg/mL.

Sample answers from the record:
>  <binder>
P018.S.09.A.H03 (antibody, V domains shown) VH: QSLEESGGRLVTPDESLTLTCTVSGFSLSSNAMIWVRQAPGKGLEWIGIIDTGGSAYYASWAKGRFTISKTSTTVDLKITSPTTEDTATYFCARDRYTDSSGYNLWGQGTLVTVSS VL: DIVMTQTPASVEAAVGGTVTIKCQASQSIGASLAWYKQKPGQPPKLLIYSASWLASGVPSRFKGSGSGTEFTLTISDLASADAATYYCQSYYYRSSSGYGYAFGGGTEVVVK

>  <EC 50 (IL-8 release, cross-linked), µg/mL>
0.387

$$$$
>  <binder>
P018.S.05.A.F05 (as anti-CD27 antibody) (antibody, V domains shown, V regions on human Ig constant parts; also called AB27_92) VH: QSVEESGGRLVTPGTPLTLTCTVSGFSLSNYYMTWVRQAPGKGLEYIGIIGSGVSTYYANWAKGRFTISKASSTTVDLKMTSPTTEDTATYFCARDMYVGNWGDWGLWGQGTLVTVSS VL: AYDMTQTPASVEVAVGGTVTIKCQASQSISNNLNWYQQKPGQPPKLLIYSVSTLASGVPSRFKGSGSGTDYTLTISGVESVDAATYYCQQDYRIGDLDSAFGGGTEVVVK

>  <EC 50 (IL-8 release, cross-linked), µg/mL>
0.376

$$$$
>  <binder>
P018.S.10.A.H01 (antibody, V domains shown) VH: QEQLEESGGDLVKPGASLTLTCTASGFSFSSDYDMCWVSQAPGKGLEWIACIIGGSSDSTWYASWAKGRFTISKTSSTTVTLQVTGLTAADTATYFCARNVGFSYYDLWGPGTLVTVSS VL: AQVLTQTPSPVSAAVGGTVTINCQASQSLYNNKNLAWYQQKPGQPPKLLIYYASTLASGVSSRFKGSGSGTQFTLTISGVQSDDAATYYCQGEFSCSSGDCFAFGGGTEVVVK

>  <EC 50 (IL-8 release, cross-linked), µg/mL>
0.431

$$$$
>  <binder>
P018.S.09.A.C06 (antibody, V domains shown) VH: QSVEESGGRLVTPGTPLTLTCTVSGFSLSTYAMGWVRQAPGKGLEWIGIIYTGGSTYYASWAEGRFTISKTSTTVDLKITSPTPEDTATYFCTRDLGATYDYFDLWGQGTLVTVSS VL: AYDMTQTPASVEVAVGGTVTIKCQASQSISTALAWYQQKPGQRPKLLIYDTSDLASGVPSRFSGSGSGTEFTLTISGVESADAATYYCQQGYRHTNVDNPFGGGTGVVVK

>  <EC 50 (IL-8 release, cross-linked), µg/mL>
0.221

$$$$
>  <binder>
P018.S.09.A.C03 (antibody, V domains shown) VH: QSVEESGGRLVTPGTPLTLTCTVSGFSLSSYGMIWVRQAPGKGLEWIGWISSNDNKYYARWAKGRFTISKTSTTVDLKMTSLTTEDTATYFCVRNGVYNTGNYFDLWGQGTLVTVSS VL: AQVLTQTPSSVSAAVGGTVTINCQASQSLYNNKNLAWYQQKPGQPPKFLIYTASSLASGVSSRFKGSGSGTQFTLTISDVQSDDAATYYCQGEFDCDSDDCFAFGGGTEVVVK

>  <EC 50 (IL-8 release, cross-linked), µg/mL>
1.02

$$$$
>  <binder>
P018.S.10.A.A03 (antibody, V domains shown, V regions on human Ig constant parts; also called AB27_163) VH: QSLEESGGRLVTPGTPLTLTCTVSGIDLSSYAMGWVRQAPGKGLEWIGTISTISNTYYASWANGRFTISKTSTTVDLKMTSLTASDTATYFCARGASNTINDYFNLWGQGTLVTVSS VL: DIVMTQTPASVSEPVGGTVTIKCQASQSVGNYLAWYQQKPGQPPKLLIYDASNLASGVSSRFKGSGFATEFILTISDLESTDAATYYCHSYVYSSGNVYNGFGGGTEVVVK

>  <EC 50 (IL-8 release, cross-linked), µg/mL>
0.513

$$$$
>  <binder>
P018.S.07.A.C04 (antibody, V domains shown) VH: QEQLVESGGGLVQPEGSLTLTCTASGFSFSSRFWICWVRQAPGKGLEWIACIYGGSTSATYDASWAKGRFTISKTSSTTVTLQMTSLTAADTATYFCTRLPTYDAYVFNLWGPGTLVTVSS VL: AIVMTQTPSSKSVPVGATATINCQASESVFSNNYLSWYQQKPGRSPKLLIYEASKLASGVPSRFSGSGSGTQFTLTISDVVSDDAATYYCGGYKSNNVDGYAFGGGTEVVVK

>  <EC 50 (IL-8 release, cross-linked), µg/mL>
0.801

$$$$
>  <binder>
P018.S.09.A.H06 (antibody, V domains shown) VH: QSVEESGGRLVKPDETLTLTCTVSGIDLTSYAMGWVRQAPGEGLEWIGAIGSGGGIYYASWARGRFTISKTSSTTVDLKIPSPTTEDTATYFCARVPQWAYLDLWGQGTLVTVSS VL: AQVLTQTPASVSAAVGGTVTISCQSSESVYKNNYLSWYQQKPGQPPKLLIYDASTLASGVPSRFSGSGSGTQFTLTISGVQSEDAATYYCQGYYGGGIFTFGGGTEVVVK

>  <EC 50 (IL-8 release, cross-linked), µg/mL>
0.329

$$$$
>  <binder>
P018.S.09.A.D05 (antibody, V domains shown) VH: QSLEESGGRLVTPGGSLTLTCTVSGIDLSSYAMDWVRQAPGKGLEWIGVIGAGGSTYYASWANGRFTISKTSTTVDLKISSPTTEDTATYFCARDIGGDYSSRYYFSLWGPGTLVTVSS VL: DIVMTQTPASVEAAVGGTVTIKCQASQSTSTALAWYQQKPGQRPKLLIYDSSKLASGVPSRFSGSGSGTEFTLTISGVQSDDAASYYCQQGYNINNVAFGGGTEVVVK

>  <EC 50 (IL-8 release, cross-linked), µg/mL>
0.561

$$$$

Here is another binder to look at.
// sample P018.S.08.A.G02 (antibody, V domains shown) VH: QSVEESGGRLVTPGTPLTLTCTVSGFSLSTYAMSWVRQAPGKGLEWIGMNTRSGIIYYASWAKGRFTISKTSTTVHLKITSPTTEDTATYFCARDLYADVSGYYLGLWGPGTLVTVSS VL: AQVLTQTPSSVSAAVGGTVTINCQASQSLYNNKNLAWYQQKPGQPPKLLIYYASTLASGVSSRFKGSGSGTQFTLTISDLESDDAATYYCQGEFICSSADCVVFGGGTAVVVK , its EC 50 (IL-8 release, cross-linked) was 1.94
